Parameter EC50: see the listing below.
# study_system: APJ (Homo sapiens)
# Construct: expressed in transfected cells; host or cells: CHO (CHO-A10; clone 6 for the cAMP assay)
# Sequence (P35414 whole entry): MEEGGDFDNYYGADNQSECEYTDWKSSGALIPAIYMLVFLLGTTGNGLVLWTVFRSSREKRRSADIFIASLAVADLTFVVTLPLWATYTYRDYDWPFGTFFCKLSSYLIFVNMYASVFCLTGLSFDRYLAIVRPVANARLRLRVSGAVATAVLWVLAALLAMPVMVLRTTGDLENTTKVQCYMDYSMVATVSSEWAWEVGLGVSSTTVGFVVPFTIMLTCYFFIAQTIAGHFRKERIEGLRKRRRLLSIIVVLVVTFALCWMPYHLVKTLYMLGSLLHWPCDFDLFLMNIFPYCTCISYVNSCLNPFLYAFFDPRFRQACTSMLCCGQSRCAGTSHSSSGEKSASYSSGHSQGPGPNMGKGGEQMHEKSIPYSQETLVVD
# protocol_notes: Inhibitory activity on forskolin-stimulated cAMP production in CHO-A10 clone 6 cells
# Assay type: cell-based
# particulars: read-out: EC50
Give a bare numeral; the unit nM is implied.

[[record]]
smiles_code = "CSCC[C@H](NC(=O)[C@@H]1CCCN1C(=O)CNC(=O)[C@H](CCCCN)NC(=O)[C@H](Cc1c[nH]cn1)NC(=O)[C@H](CO)NC(=O)[C@H](CC(C)C)NC(=O)[C@H](CCCNC(=N)N)NC(=O)[C@@H]1CCCN1C(=O)[C@@H](N)CCCNC(=N)N)C(=O)N1CCC[C@H]1C(=O)N[C@@H](CC1CCCCC1)C(=O)O"
units_symbol = "nM"
meas_value = 0.71


Consider the molecule "CSCC[C@H](NC(=O)[C@@H]1CCCN1C(=O)CNC(=O)[C@H](CCCNC(=N)N)NC(=O)[C@H](C)NC(=O)[C@H](CO)NC(=O)[C@H](CC(C)C)NC(=O)[C@H](CCCNC(=N)N)NC(=O)[C@@H]1CCCN1C(=O)[C@H](CCCNC(=N)N)NC(=O)[C@H](CCC(N)=O)NC(=O)[C@H](CCCNC(=N)N)NC(=O)[C@@H](N)CCCNC(=N)N)C(=O)N1CCC[C@H]1C(=O)N[C@@H](Cc1ccc(Cl)cc1)C(N)=O" and give its measured EC50.
0.32
